measurementTarget: Peptide 1: Biotin-…-[Tyr(PC)]-acid
Sequence (peptide, as listed by the source): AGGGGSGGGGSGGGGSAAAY
methodNotes: scFv ELISA
measuredParameter: OD450 (OD450)
Express your answer in OD450, writing the number without its unit.

Please review the following examples before continuing.
{"columns": ["binder", "unitsText", "reportedValue"],
 "data": [
  ["PcOxP_DB01_H03 (scFv, V domains shown, scFv in periplasmic extract) VH: EVQLLESGGGLVQPGGSLRLSCAASGFTFSDHYMEWVRQAPGKGLEWVAASRGKGNSYTTAYADSVKGRFTISRDNSKNTLYLQMNSLRAEDTAVYYCARDYYGSSYWYFDVWGQGTLVTVSS VL: DIVMTQSPDSLAVSLGERATINCTASESLYSSKHKVHYLAWYQQKPGQPPKLLIYGAGNRYIGVPDRFSGSGSGTDFTLTISSLQAEDVAVYYCAQFYHYPLTFGGGTKVEIK", "OD450", 0.46],
  ["PcOxP_DB01_C07 (scFv, V domains shown, scFv in periplasmic extract) VH: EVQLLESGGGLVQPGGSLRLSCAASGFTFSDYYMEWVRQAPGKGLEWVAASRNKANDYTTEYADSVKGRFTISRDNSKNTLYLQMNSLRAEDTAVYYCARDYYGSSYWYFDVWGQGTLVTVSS VL: DIVMTQSPDSLAVSLGERATINCTASESLYSSKHKVHYLAWYQQKPGQPPKLLIYGASNRYDGVPDRFSGSGSGTDFTLTISSLQAEDVAVYYCAQFYSYPLTFGGGTKVEIK", "OD450", 0.53]
]}

// returns reported OD450 for input PcOxP_DB01_F01 (scFv, V domains shown, scFv in periplasmic extract) VH: EVQLLESGGGLVQPGGSLRLSCAASGFPFSDFYMEWVRQAPGKGLEWVAASRNKANDYTTEYADSVKGRFTISRDNSKNTLYLQMNSLRAEDTAVYYCARDYYGSPYWYFDVWGQGTLVTVSS VL: DIVMTQSPDSLAVSLGERATINCTASESVYSSKNKKHYLAWYQQKPGQPPKLLIYGASNRYIGVPDRFSGSGSGTDFTLTISSLQAEDVAVYYCAQFYTYPLTFGGGTKVEIK
0.6

Value source: patent US20250320312A1
